procedureSummary: LY2603618 plasma pharmacokinetics, noncompartmental analysis
Format: in vivo, human
experimentalConditions: human, plasma, intravenous, 230 mg, 230 mg LY2603618; Cycle 1 Day 16; read-out: AUC(0–24), Geometric Mean (CV%)
experimentalEndpoint: AUC(0-t) (ng·h/mL)
Give just the number in ng·h/mL; leave the unit off.

response.value for `Cc1cnc(NC(=O)Nc2cc(Br)c(C)cc2OC[C@@H]2CNCCO2)cn1` (field: AUC(0-t)) = 23700
